System: UniProt:Q06187 | Read-out: IC50 | Origin: multiple publications

Below, each entry is followed by its recorded IC50 result.
IC50 of O=C(CNc1ccccc1S(=O)(=O)N1CCCC1)N[C@@H]1CCCN(c2ncnc3[nH]ncc23)C1 on UniProt:Q06187?
< 100 nM

Item C=CC(=O)N(CC)c1cccc(Nc2ncc3cc(-c4c(C)ccn(C(=O)N(C)C)c4=O)ccc3n2)c1 with UniProt:Q06187 - IC50?
100 to 1000 nM

---
API: value(readout=IC50, system=UniProt:Q06187) for record C=CC(=O)N1CC[C@]2(C1)C[C@H](n1c(NC(=O)c3ccc(-c4nnc(C)o4)s3)nc3ccccc31)C2
1.38 nM

Record C=CC(=O)N1CCC[C@@H](n2nc(-c3ccc(Oc4ccccc4)cc3C#N)c3cncnc32)C1 : what is its IC50 with UniProt:Q06187?
100 to 500 nM
